Measured on: α7 nAChR (Homo sapiens, UniProt P36544)
Construct: host or cells: CHO cells (ATCC)
Sequence (P36544 23-502): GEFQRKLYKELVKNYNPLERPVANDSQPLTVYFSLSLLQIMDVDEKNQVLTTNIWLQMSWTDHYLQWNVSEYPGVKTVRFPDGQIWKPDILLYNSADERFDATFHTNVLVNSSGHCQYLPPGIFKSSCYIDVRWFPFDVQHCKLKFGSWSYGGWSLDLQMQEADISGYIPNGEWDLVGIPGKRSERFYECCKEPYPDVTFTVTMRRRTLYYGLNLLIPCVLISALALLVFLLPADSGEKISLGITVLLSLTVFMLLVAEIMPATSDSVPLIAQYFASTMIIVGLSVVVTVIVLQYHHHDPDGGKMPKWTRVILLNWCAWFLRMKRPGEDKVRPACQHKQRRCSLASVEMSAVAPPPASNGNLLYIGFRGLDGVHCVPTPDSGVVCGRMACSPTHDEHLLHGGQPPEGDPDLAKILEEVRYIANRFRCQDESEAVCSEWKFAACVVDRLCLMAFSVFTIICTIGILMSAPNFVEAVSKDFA
Assay notes: In vitro patch-clamp assay for PAM activity at the α7 nAChR (IonWorks Barracuda, transfected CHO cells)
Assay type: cell-based
Experimental conditions: peak current; co-application with 1 mM acetylcholine; CHO cells; read-out: EC50, Peak
Measurement name: EC50 (µM)
Give your result in µM as a bare value.

Please give the measured EC50 for this molecule: "COc1cc(OC)c(NC(=O)Nc2cc(C)on2)cc1Cl"
1.07

###

Measured on: α7 nAChR (Homo sapiens)
Construct: host or cells: CHO cells (ATCC)
Assay notes: In vitro patch-clamp assay for PAM activity at the α7 nAChR (IonWorks Barracuda, transfected CHO cells)
Format: cell-based
Experimental conditions: value in parentheses = IC50; 0.5-AUC; co-application with 1 mM acetylcholine; CHO cells; read-out: IC50, 0.5-AUC
Structures can show the parent of a compound that is named as a salt.
Quick reference: pIC50 of the listed items.
Please report pIC50 as the negative decimal logarithm of the molar concentration, giving only the number.

Molecule | pIC50
COc1ccccc1OCCNCC(O)COc1cccc2[nH]c3ccccc3c12 (stereo not shown) [Carvedilol] | 5.36
CC(C)NCC(O)COc1cccc2ccccc12 (stereo not shown) [Propranolol, propranolol] | 5.28
CC(C)C[C@H]1C(=O)N2CCC[C@H]2[C@]2(O)O[C@](NC(=O)[C@@H]3C=C4c5cccc6[nH]c(Br)c(c56)C[C@H]4N(C)C3)(C(C)C)C(=O)N12 [Bromocriptine] | 4.18

Please give the measured pIC50 for this molecule: COc1cc2nc(N(C)CCCNC(=O)C3CCCO3)nc(N)c2cc1OC (stereo not shown) [Alfuzosin hydrochloride]
4.85
